Entry source: patent US11613750B2

system: HBsAg; details: read-out: EC50, Extracell. HBsAg reduction; HepG2.2.15 cells
Provide the reported EC50 of each item.
Lab note: write values as number then unit, every time.

Problem: Report measured EC50; entry is 24 (GCAAAGAAAGAAGAAUCCGTTCGGAUUCUUCUUUCUUUGCTT; siRNA; Self-complementary hairpin strand, chemistry not given here, further chemistry not given here; listed as Homo sapiens) [compound 24]
Solution: 0.359 nM

Problem: Report measured EC50; entry is 28 (UAUGGCCUCUGUCUCCGAGCUUUAGCUCGGAGACAGAGGCCAUAUU; siRNA; Self-complementary hairpin strand, chemistry not given here, further chemistry not given here; listed as Homo sapiens) [compound 28]
Solution: 0.19 nM

Problem: Report measured EC50; entry is 52 (CAAGGUUAUCAGUGUGCUGTTCAGCACACUGAUAACCUUGTT; siRNA; Self-complementary hairpin strand, chemistry not given here, further chemistry not given here; listed as Homo sapiens) [compound 52]
Solution: 0.06 nM

Problem: Report measured EC50; entry is 42 (CCCAGCGCCAAGGACAUCAAGUUCUUGAUGUCCUUGGCGCUGGGUU; siRNA; Self-complementary hairpin strand, chemistry not given here, further chemistry not given here; listed as Homo sapiens) [compound 42]
Solution: 0.385 nM

====

Provide the reported Target RNA reduction in HepG2.2.15 cells of each item.
test system: RPLP2 mRNA; experiment: Target mRNA reduction by RT-qPCR in HepG2.2.15 cells; type: cell-based, human; settings: 10 nM siRNA
Lab note: write values as number then unit, every time.

Problem: Report measured Target RNA reduction in HepG2.2.15 cells; entry is 50 (CGACCGGCUCAACAAGGUUTTAACCUUGUUGAGCCGGUCGTC; siRNA; Self-complementary hairpin strand, chemistry not given here, further chemistry not given here; listed as Homo sapiens) [compound 50]
Solution: 98 ± 1%

Problem: Report measured Target RNA reduction in HepG2.2.15 cells; entry is 34 (GCUGAAUGGAAAAAACAUUGATTAAUGUUUUUUCCAUUCAGCUCTT; siRNA; Self-complementary hairpin strand, chemistry not given here, further chemistry not given here; listed as Homo sapiens) [compound 34]
Solution: 93 ± 1%

Problem: Report measured Target RNA reduction in HepG2.2.15 cells; entry is 35 (GGGAUUUGGCCUUUUUGAUUATTAUCAAAAAGGCCAAAUCCCAUTT; siRNA; Self-complementary hairpin strand, chemistry not given here, further chemistry not given here; listed as Homo sapiens) [compound 35]
Solution: 98 ± 0%

Problem: Report measured Target RNA reduction in HepG2.2.15 cells; entry is 51 (GAAGAUCUUGGACAGCGUGTTCACGCUGUCCAAGAUCUUCTT; siRNA; Self-complementary hairpin strand, chemistry not given here, further chemistry not given here; listed as Homo sapiens) [compound 51]
Solution: 98 ± 0%

Problem: Report measured Target RNA reduction in HepG2.2.15 cells; entry is 39 (AGAGGAGAAGAAAGAUGAGAAUUUUCUCAUCUUUCUUCUCCUCUUU; siRNA; Self-complementary hairpin strand, chemistry not given here, further chemistry not given here; listed as Homo sapiens) [compound 39]
Solution: 96 ± 1%

Problem: Report measured Target RNA reduction in HepG2.2.15 cells; entry is 38 (AGUGUACCUGCUGGUGGGGCUUUAGCCCCACCAGCAGGUACACUUU; siRNA; Self-complementary hairpin strand, chemistry not given here, further chemistry not given here; listed as Homo sapiens) [compound 38]
Solution: 96 ± 1%

Problem: Report measured Target RNA reduction in HepG2.2.15 cells; entry is 43 (GUAUCGAGGCGGACGACGACCUUGGUCGUCGUCCGCCUCGAUACUU; siRNA; Self-complementary hairpin strand, chemistry not given here, further chemistry not given here; listed as Homo sapiens) [compound 43]
Solution: 94 ± 2%
